# Tested on: HepG2
# assaySummary: cytotoxicity call (relative viability < 0.9)
# measurementConditions: 10 µM
The campaign covered roughly 39,000 compounds. About 3,300 (8.5%) were called active. This is one part of a sample in which actives are shown more often than they occur.
Labels: Y for active, N for inactive

| chemicalSmiles | assignedCategory |
| --- | --- |
| CNC[C@@H]1OCCCC[C@H](C)Oc2ccc(NC(=O)Nc3ccc(C(F)(F)F)cc3)cc2C(=O)N([C@@H](C)CO)C[C@@H]1C | N |
| C[C@H](CO)N1C[C@H](C)[C@H](CN(C)S(=O)(=O)c2ccc(F)cc2)OCCCC[C@H](C)Oc2ccc(NS(=O)(=O)c3cn(C)cn3)cc2C1=O | N |
| Cc1nc(-c2ccc(OCC(C)C)c(C#N)c2)sc1C(=O)O | Y |
| C[C@@H]1CN([C@H](C)CO)C(=O)c2cc(C#CC3(O)CCCC3)cnc2O[C@H]1CN(C)C(=O)Cc1ccccc1 | N |
| C[C@@H]1CN([C@@H](C)CO)C(=O)c2cccc(N(C)C)c2O[C@@H]1CN(C)S(=O)(=O)c1ccc(Cl)cc1 | N |
| Cn1ccc2ccc(CN)cc21 | N |
| Cc1ccc(S(=O)(=O)N(C)C[C@H]2Oc3cc(C#Cc4ccccc4)ccc3S(=O)(=O)N([C@H](C)CO)C[C@@H]2C)cc1 | N |
| C[C@H]1CCCn2nncc2COCCNC1=O | N |
| Cc1ccc(S(=O)(=O)N(C)C[C@H]2OCCCC[C@@H](C)Oc3ccc(NC(=O)Cc4ccccc4)cc3C(=O)N([C@@H](C)CO)C[C@@H]2C)cc1 | N |
| Cc1ccc(S(=O)(=O)N(C)C[C@@H]2Oc3cc(C#Cc4ccccc4)ccc3S(=O)(=O)N([C@H](C)CO)C[C@H]2C)cc1 | N |
| COc1ccc(S(=O)(=O)N(C)C[C@H]2Oc3c(NC(=O)c4cnccn4)cccc3C(=O)N([C@H](C)CO)C[C@H]2C)cc1 | N |
| Cc1noc(C)c1NC(=O)Nc1ccc2c(c1)C(=O)N([C@@H](C)CO)C[C@@H](C)[C@H](CN(C)C(=O)Nc1ccc3c(c1)OCO3)OCCCC[C@H](C)O2 | N |
| O=C(C[C@@H]1CC[C@@H]2[C@H](COC[C@H](O)CN2S(=O)(=O)c2ccc(Oc3ccccc3)cc2)O1)NC1CCC1 | N |
| C[C@H]1CCCCO[C@H](CN(C)C(=O)C2CCCCC2)[C@@H](C)CN([C@@H](C)CO)C(=O)c2cc(NS(=O)(=O)c3ccc(F)cc3)ccc2O1 | N |
| C/C=C/c1ccc2c(c1)O[C@H](CN(C)Cc1ccc(C(=O)O)cc1)[C@@H](C)CN([C@@H](C)CO)S2(=O)=O | N |
